Target: T1, BMPRII receptor-Fc fusion (UniProt Q13873 27-151, limits assumed)
T1 construct: BMP receptor-Fc fusion used at 5 ug/mL
T1 sequence (looked up): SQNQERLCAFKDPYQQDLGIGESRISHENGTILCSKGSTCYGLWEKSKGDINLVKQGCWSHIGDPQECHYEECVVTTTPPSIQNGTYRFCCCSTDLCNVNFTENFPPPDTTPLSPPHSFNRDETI
Experiment: ELISA-like plate assay, captured BMP-7 from conditioned media, receptor-Fc detection
Reported BMPRII binding (relative to wild type = 1.0) values follow for various binders

Prompt: Look up BMPRII binding (relative to wild type = 1.0) for this binder: BMP-7 variant R129S (ligand, In conditioned media; numbering on mature BMP-7) STGGKQRSQNRSKTPKNQEALRMASVAENSSSDQRQACKKHELYVSFRDLGWQDWIIAPEGYAAYYCEGECAFPLNSYMNATNHAIVQTLVHFINPETVPKPCCAPTQLNAISVLYFDDSSNVILKKYSNMVVRACGCH
Completion: 0.26 relative to wild type

Prompt: Look up BMPRII binding (relative to wild type = 1.0) for this binder: BMP-7 variant I86K (ligand, In conditioned media; numbering on mature BMP-7) STGGKQRSQNRSKTPKNQEALRMASVAENSSSDQRQACKKHELYVSFRDLGWQDWIIAPEGYAAYYCEGECAFPLNSYMNATNHAKVQTLVHFINPETVPKPCCAPTQLNAISVLYFDDSSNVILKKYRNMVVRACGCH
Completion: 1.02 relative to wild type

Prompt: Look up BMPRII binding (relative to wild type = 1.0) for this binder: BMP-7 variant W55R (ligand, In conditioned media; numbering on mature BMP-7) STGGKQRSQNRSKTPKNQEALRMASVAENSSSDQRQACKKHELYVSFRDLGWQDRIIAPEGYAAYYCEGECAFPLNSYMNATNHAIVQTLVHFINPETVPKPCCAPTQLNAISVLYFDDSSNVILKKYRNMVVRACGCH
Completion: 1.52 relative to wild type

Prompt: Look up BMPRII binding (relative to wild type = 1.0) for this binder: BMP-7 variant N76D (ligand, In conditioned media; numbering on mature BMP-7) STGGKQRSQNRSKTPKNQEALRMASVAENSSSDQRQACKKHELYVSFRDLGWQDWIIAPEGYAAYYCEGECAFPLDSYMNATNHAIVQTLVHFINPETVPKPCCAPTQLNAISVLYFDDSSNVILKKYRNMVVRACGCH
Completion: 0.87 relative to wild type

Prompt: Look up BMPRII binding (relative to wild type = 1.0) for this binder: BMP-7 variant K39S (ligand, In conditioned media; numbering on mature BMP-7) STGGKQRSQNRSKTPKNQEALRMASVAENSSSDQRQACSKHELYVSFRDLGWQDWIIAPEGYAAYYCEGECAFPLNSYMNATNHAIVQTLVHFINPETVPKPCCAPTQLNAISVLYFDDSSNVILKKYRNMVVRACGCH
Completion: 1.37 relative to wild type

Prompt: Look up BMPRII binding (relative to wild type = 1.0) for this binder: BMP-7 variant R129D (ligand, In conditioned media; numbering on mature BMP-7) STGGKQRSQNRSKTPKNQEALRMASVAENSSSDQRQACKKHELYVSFRDLGWQDWIIAPEGYAAYYCEGECAFPLNSYMNATNHAIVQTLVHFINPETVPKPCCAPTQLNAISVLYFDDSSNVILKKYDNMVVRACGCH
Completion: 1.86 relative to wild type

Prompt: Look up BMPRII binding (relative to wild type = 1.0) for this binder: BMP-7 variant Y78D (ligand, In conditioned media; numbering on mature BMP-7) STGGKQRSQNRSKTPKNQEALRMASVAENSSSDQRQACKKHELYVSFRDLGWQDWIIAPEGYAAYYCEGECAFPLNSDMNATNHAIVQTLVHFINPETVPKPCCAPTQLNAISVLYFDDSSNVILKKYRNMVVRACGCH
Completion: 2.72 relative to wild type
